Reported OD450 values for the following binders.
# target-of-assay: T1, human MSLN-R2-his protein (human, UniProt Q13421 391-486)
# T1 construct: also called human MSLN-R2 protein; hMSLN-R2-his; not shown: His tag
# T1 sequence (Q13421 other isoform, or with tags, fused parts or gaps): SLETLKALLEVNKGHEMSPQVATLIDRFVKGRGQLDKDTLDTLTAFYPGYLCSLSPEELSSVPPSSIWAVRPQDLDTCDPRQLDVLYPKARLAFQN
# run-description: ELISA, coated antigen; antibody 0.001 nM
The reply should contain only the number, in OD450.

Consider the worked cases shown below.
- S009-F3.80.22 (antibody, human IgG1, kappa, V domains shown, Human-murine chimeric antibody, human IgG1/kappa constant regions) VH: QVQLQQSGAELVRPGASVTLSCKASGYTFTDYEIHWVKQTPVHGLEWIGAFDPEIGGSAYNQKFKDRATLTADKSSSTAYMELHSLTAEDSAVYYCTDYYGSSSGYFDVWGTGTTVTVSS VL: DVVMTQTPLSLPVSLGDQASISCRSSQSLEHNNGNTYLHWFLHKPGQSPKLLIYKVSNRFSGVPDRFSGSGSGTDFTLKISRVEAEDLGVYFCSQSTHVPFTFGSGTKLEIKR: 0.06
- S009-F3.16.1 (antibody, human IgG1, kappa, V domains shown, Human-murine chimeric antibody, human IgG1/kappa constant regions) VH: EVKFEESGGGLVQPGGSMKLSCVASGFTFSNYWMNWVRQSPEKGLEWVAQIRLKSDNYATHYAESVKGRFSISRDDSKSSVYLQMNNLRAEDTGIYYCSVGTGGYWGQGTTLTVSS VL: DIVLTQSPASLALSPGKRATISCRASESVSIIGTDVIHWFQQKPGQPPKLLIYHASNLETGVPARFSGSGSRTDFTLTIDPVEEDDVAIYYCLQSRKIPWTFGGGTKLEIKR: 0.06

Let us examine a further case.
Item: S009-F3.74.20 (antibody, human IgG1, kappa, V domains shown, Human-murine chimeric antibody, human IgG1/kappa constant regions) VH: RVQLQQSGAELVRPGASVTLSCKASGYTFTDSEMHWVKQTPVHGLEWIGAIDPEIDGTAYNQNFRDKAILTADKSSSTAYMELRSLTSEDSAVYYCTTYFGSGYGYFDVWGTGTTVTVSS VL: DVVMTQTPLSLSVSLGDQASISCRSSQSLVYSNGNTYLHWFLQKPGQSPKLLIYKVSNRFSGVPDRFSGSGSGTDFTLKINRVEAEDLGVYFCSQSTHIPFTFGAGTKLELKR | OD450: 0.06
